# ASSAY_COMMENT: A CellTox Green Cytotoxicity Assay to monitor cytotoxicity in HepG2 cells - 0 hour (AID 1224882); also: nearly all actives have a fitted effect of over 35% in size
# TEST_CONTEXT: CellTox Green fluorescence; series mostly up to 76.8 µM
# Text: National Center for Advancing Translational Sciences [NCATS] NIH Chemical Genomics Center [NCGC] U.S. Environmental Protection Agency [EPA] National Institutes of Environmental Health Sciences [NIEHS] National Toxicology Program [NTP] Cell-based models are critical for drug discovery. […] Viable cells produce no appreciable increases in fluorescence. Therefore, the fluorescence signal produced by the binding interaction with dead cell DNA is proportional to cytotoxicity. […]
Activity calls are given as the source filed them. Calls follow the shape of the dose curve; as a rule, active = well fitted activation curve with a large enough effect in the repeat runs; inconclusive = weak or mixed curves; inactive = flat fitted curve, though single readings scatter.
Mark one answer only. Choices: active, inactive

{"COMPOUND": "Nc1cccc2c(N)cccc12", "CLASS": "inactive"}
{"COMPOUND": "CCC(=O)OCc1ccc(OC)cc1", "CLASS": "inactive"}
{"COMPOUND": "CC(=O)c1ccc[nH]1", "CLASS": "inactive"}
{"COMPOUND": "CCCCCCCCCCCCCCCCCC(=O)OCC(CC)CCCC (stereo not drawn)", "CLASS": "inactive"}
{"COMPOUND": "CS(=O)(=O)c1ccc([C@@H](C[C@H]2CCC(=O)C2)C(=O)Nc2cnccn2)cc1Cl", "CLASS": "inactive"}
{"COMPOUND": "CCCCOC(=O)CCCCC(=O)OCCCC", "CLASS": "inactive"}
{"COMPOUND": "CCN(CC)c1cccc(O)c1", "CLASS": "inactive"}
{"COMPOUND": "CCNc1nc(N)nc(Cl)n1", "CLASS": "inactive"}
{"COMPOUND": "O=C(O)CNC(=O)c1ccccc1I", "CLASS": "inactive"}
{"COMPOUND": "COc1ccc(N)c([N+](=O)[O-])c1", "CLASS": "inactive"}

Problem: Please indicate how the test categorized O=[N+]([O-])C1(Br)COCOC1 .
Solution: inactive

Problem: Please indicate how the test categorized O=C(O)CCC(=O)OC[C@@H](NC(=O)C(Cl)Cl)[C@H](O)c1ccc([N+](=O)[O-])cc1 .
Solution: active

Problem: Please indicate how the test categorized Nc1ccn([C@H]2CS[C@@H](CO)O2)c(=O)n1 .
Solution: inactive
